The reported numbers originate from ChEMBL document CHEMBL5058577.

Please provide measured Population Healthy Nuclei (%) for the entries that follow.
# System: HEK-293T
# PROTOCOL DESCRIPTION: Multiplex assay against HEK293T
# Assay type: toxicity, cell-based
# EXPERIMENTAL CONTEXT: human, 12 h, 1 µM, compound concentration 1 uM, replicate 1
Respond with the bare value in %.

Record Nc1nc(CC(=O)Nc2ccc(CCNC[C@H](O)c3ccccc3)cc2)cs1 [MIRABEGRON] . Reported Population Healthy Nuclei (%): 84

Record CCCCC[C@H](O)/C=C/[C@H]1[C@H](O)CC(=O)[C@@H]1CCCCCCC(=O)O [ALPROSTADIL] . Reported Population Healthy Nuclei (%): 79

Record COCCCN1CCC(NC(=O)c2cc(Cl)c(N)c3c2OCC3)CC1 [PRUCALOPRIDE] . Reported Population Healthy Nuclei (%): 80

Record COC(c1ccccc1)(c1ccccc1)[C@H](Oc1nc(C)cc(C)n1)C(=O)O [AMBRISENTAN] . Reported Population Healthy Nuclei (%): 75

Record COc1cc(Nc2ncc3c(n2)-c2ccc(Cl)cc2C(c2c(F)cccc2OC)=NC3)ccc1C(=O)O [ALISERTIB] . Reported Population Healthy Nuclei (%): 88

Record OCCCNc1cc(-c2ccnc(Nc3cccc(Cl)c3)n2)ccn1 . Reported Population Healthy Nuclei (%): 66

Record O=C(Nc1cc(-c2ccccc2)nn1-c1ccccc1F)c1ccc([N+](=O)[O-])cc1 . Reported Population Healthy Nuclei (%): 78

Record Cc1cc(=O)n(C)c2cc(N3C(=O)CC[C@H](NS(=O)(=O)CC(C)C)[C@H]3c3ccc(Cl)cc3)ccc12 . Reported Population Healthy Nuclei (%): 83

Record Cc1sc2c(c1C)C(c1ccc(Cl)cc1)=N[C@H](CC(=O)OC(C)(C)C)c1nnc(C)n1-2 . Reported Population Healthy Nuclei (%): 80

Record COc1cc(C(=O)N2CC[C@@H](O)[C@@H](N)C2)cc2nc(-c3cc4ccccc4n3CC3CC3)n(C)c12.Cl . Reported Population Healthy Nuclei (%): 79

Record C=CCN1C[C@H](C(=O)N(CCCN(C)C)C(=O)NCC)C[C@@H]2c3cccc4[nH]cc(c34)C[C@H]21 [CABERGOLINE] . Reported Population Healthy Nuclei (%): 76

Record CCC(=O)OCC(=O)[C@@]1(OC(=O)CC)[C@@H](C)C[C@H]2[C@@H]3CCC4=CC(=O)C=C[C@]4(C)[C@@]3(Cl)[C@@H](O)C[C@@]21C [BECLOMETHASONE DIPROPIONATE] . Reported Population Healthy Nuclei (%): 75
